Readings of Vd for the listed molecules
protocol-summary: Pharmacokinetic evaluation of compounds in mice
Type: in vivo
study-conditions: mouse, plasma; male CD-1 mice, IV 0.5 mg/kg; read-out: Vdss
Structures can show the parent of a compound that is named as a salt.
quantity-kind: Vd (L/kg)

• Cc1cc(-c2ncc(CNc3nccn4c(-c5ccccc5)cnc34)cc2C)ccn1 [Compound 1] = 0.633
• Cc1cc(-c2ncc(CNc3nccn4c(-c5cc(F)cc(F)c5)cnc34)cc2OCCN(C)C)ccn1 [Compound 33] = 9.52
• Cc1cc(-c2ncc(CNc3nccn4c(-c5cc(F)cc(F)c5)cnc34)cc2C)ccn1 [Compound 30 (hydrochloride)] = 0.666
• Cc1cc(-c2ccc(CNc3nccn4c(-c5ccccc5)cnc34)cc2C#N)ccn1 [Compound 22 (formate)] = 1.09
• Cc1cc(-c2ncc(CNc3nccn4c(-c5cccc(Cl)c5)cnc34)cc2C)ccn1 [Compound 28 (hydrochloride)] = 0.553
• Cc1cc(-c2ncc(CNc3nccn4c(-c5cccc(F)c5)cnc34)cc2C)ccn1 [Compound 29 (hydrochloride)] = 0.641
• Cc1cc(-c2ncc(CNc3nccn4c(-c5cc(F)cc(F)c5)cnc34)cc2F)ccn1 [Compound 36 (formate)] = 1.35
